Where these numbers come from: ChEMBL document CHEMBL6083285

# measurement description: Inhibition of NLRP3 inflammasome activation mediated pyroptosis in LPS-stimulated human THP-1 cells preincubated for 3 hrs followed by nigericin addition and measured after 1 hrs by resazurin dye based assay
# Format: cell-based
property name: pIC50
Lab note: report pIC50 as minus log10 of the concentration in molar units, number only.

Summary for this molecule, "CC(C)c1cccc2c1CC(=O)NS(=O)(=O)c1cccc(c1)C(C)(C)COc1cc-2ccn1" : pIC50 is 5.83

Summary for this molecule, "CC(C)c1cccc2c1CC(=O)NS(=O)(=O)c1cnn(n1)C(C)(C)COc1cc-2ccn1" : pIC50 is 5.78

Summary for this molecule, "CC1(C)COc2cc(ccn2)-c2ccc3c(c2NC(=O)NS(=O)(=O)c2ccn1n2)CCC3" : pIC50 is 7.07

Summary for this molecule, "CC1(C)COc2cc(ccn2)-c2ccc3c(c2NC(=O)NS(=O)(=O)c2nn1cc2F)CCC3" : pIC50 is 7.77

Summary for this molecule, "COc1cc(-c2ccc3c(c2NC(=O)NS(=O)(=O)c2cnn(C(C)C)n2)CCC3)ccn1" : pIC50 is 7.24

Summary for this molecule, "CC(C)(O)c1coc(S(=O)(=O)NC(=O)Nc2c3c(cc4c2CCC4)CCC3)c1" : pIC50 is 7.19

Summary for this molecule, "COc1cc(-c2ccc3c(c2NC(=O)NS(=O)(=O)c2nn(C(C)C)cc2F)CCC3)ccn1" : pIC50 is 8.10

Summary for this molecule, "CC(C)c1cccc2c1CC(=O)NS(=O)(=O)c1cnn(c1)C1(CCC1)COc1cc-2ccn1" : pIC50 is 7.28

Summary for this molecule, "O=C1Nc2c(ccc3c2CCC3)-c2ccnc(c2)OCCCCCCn2ccc(n2)S(=O)(=O)N1" : pIC50 is 6.67
